# PROCEDURE_SUMMARY: Identification of proteins required for the processing of the EWS-FLI1 nascent transcript;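 note: robust z of luciferase light less the median z of siRNAs with the same seed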
# SETUP_CONDITIONS: TC32 Ewing sarcoma NR0B1-luc vs CMV-luc (EWS-FLI1 target promoter against control promoter), 48 h; screened at 20 nM (by protocol)
Over roughly 59,000 sequences, the read-out has its median near -0.00055; the lowest 2% begin near -2. Shown is part of a subset that was picked to be rich in the lowest values.
PROPERTY_MEASURED: seed-corrected z-score
When you answer, write just the number.

The recorded seed-corrected z-score for UUGGAGUUCAGGAUCCUCU against MYO19 is 0.563

The recorded seed-corrected z-score for AAAUCCACAAUCCAGGGAG against SPATA31E2P is 0.176

The recorded seed-corrected z-score for UUCUUACCAGUGUUGAUGG against KIF11 is -2.21

The recorded seed-corrected z-score for UUGACGUGCAUGAAGGACC against DUSP3 is -0.254

The recorded seed-corrected z-score for ACAGAUGUCACACUCGAAG against ZNF581 is 0.251

The recorded seed-corrected z-score for UUCCGGUAGAAGAUGAGCC against SHMT2 is 0.314

The recorded seed-corrected z-score for ACCUUUUUCACUUCUACAC against 2-Mar is -0.43

The recorded seed-corrected z-score for UUGUUUAUGAGCAAGGUGG against RPL41 is -0.22

The recorded seed-corrected z-score for UUCUUGACUGCUGGUAUAG against C3orf30 is -0.465

The recorded seed-corrected z-score for AUCCGGAACCUGUAGAUCG against CCDC130 is -0.0498

The recorded seed-corrected z-score for UGUCUCUCAGGCAACAGGC against PROP1 is -0.922

The recorded seed-corrected z-score for UGAUCUAUCUUAGUCGCUC against POLQ is -0.0262

The recorded seed-corrected z-score for UCAGGUGCUCCAAGUACUG against TMEM201 is -2.21

The recorded seed-corrected z-score for UCUGCUCCAAUAAUCCGGC against ANKS6 is 0.347

The recorded seed-corrected z-score for UUCCUCAAAACUGCAGACU against LOC729451 is -0.00746

The recorded seed-corrected z-score for UCGUUGUUCAAACCAUUCC against ZEB2 is -2.94

The recorded seed-corrected z-score for AUAUGUUUACUACCGGUGC against CYP4Z1 is -0.0519

The recorded seed-corrected z-score for UCUUUGUACGCAUCAAGUG against NPY1R is -0.0164

The recorded seed-corrected z-score for UUUGAGCUUUCCUUAUUCC against CEP97 is 0.381

The recorded seed-corrected z-score for AUAGGUGUCCUUCAGGUCC against MYL5 is -0.00285

The recorded seed-corrected z-score for UAAGCACACACAAUGGUAC against DLK2 is 0.0903

The recorded seed-corrected z-score for AAGGGCAAAGGAGUGAGGC against LOC100289495 is -0.199

The recorded seed-corrected z-score for UUAUGUCUCAUGAGUCGGU against ZNF548 is -0.149

The recorded seed-corrected z-score for UUAGCAUCUGCAGCAUUCU against RBMY2DP is -0.255

The recorded seed-corrected z-score for UUGAUUUCCACUCCUUUUG against SGCD is -0.522

The recorded seed-corrected z-score for UCCAGUUGUAGUUCGGCAG against KISS1 is -2.32
